Quick list: pEC50 per entry.
# measured.target: Vasopressin V2 receptor (Homo sapiens)
# measurement.protocol: Agonist activity at recombinant human vasopressin V2 receptor expressed in HEK293 cells by luciferase reporter gene assay
# Format: functional, cell-based
# conditions: read-out: EC50
pEC50: −log10 of the molar value. Bridge positions count the residues as written; N and C are the ends. Square brackets hold non-standard residues; d marks the D form. Peptide text beside a SMILES is read from it. Aad = N[C@@H](CCCC(=O)O)C(=O)O; Orn = NCCC[C@H](N)C(=O)O
experimental.readout: pEC50

- compound: "CC[C@H](C)[C@@H]1NC(=O)[C@H](Cc2ccccc2)NC(=O)[C@@H](N)CSSC[C@@H](C(=O)N2CCC[C@H]2C(=O)N[C@@H](CCCNC(C)C)C(=O)NCC(N)=O)NC(=O)[C@H](CC(N)=O)NC(=O)[C@H](CCCC(N)=O)NC1=O"
  value.measured: 5.57
- compound: "CC[C@H](C)[C@@H]1NC(=O)[C@H](Cc2ccccc2)NC(=O)[C@@H](N)CSSC[C@@H](C(=O)N2CCC[C@H]2C(=O)N[C@@H](CCCN)C(=O)NCC(N)=O)NC(=O)[C@H](CC(N)=O)NC(=O)[C@H](CCCC(N)=O)NC1=O (H-CFI[Aad](NH2)NCP[Orn]G-NH2; disulfide 1-6)"
  value.measured: 5.80

* * *

Quick list: pEC50 per entry.
# measured.target: Vasopressin V2 receptor (Homo sapiens, UniProt P30518)
# Sequence (P30518 whole entry): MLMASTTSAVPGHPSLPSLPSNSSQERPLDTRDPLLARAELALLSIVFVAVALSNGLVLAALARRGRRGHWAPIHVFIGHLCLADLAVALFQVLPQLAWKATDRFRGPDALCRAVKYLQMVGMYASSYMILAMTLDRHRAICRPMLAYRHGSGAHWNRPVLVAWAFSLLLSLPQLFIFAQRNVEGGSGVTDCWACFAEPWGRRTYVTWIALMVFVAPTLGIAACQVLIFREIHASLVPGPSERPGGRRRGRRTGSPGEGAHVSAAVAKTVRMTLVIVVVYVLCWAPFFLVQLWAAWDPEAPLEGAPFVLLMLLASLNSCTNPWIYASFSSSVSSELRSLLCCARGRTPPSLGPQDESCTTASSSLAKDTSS
# measurement.protocol: Agonist activity at recombinant human vasopressin V2 receptor expressed in HEK293 cells by luciferase reporter gene assay
# Assay type: functional, cell-based
# conditions: read-out: EC50
pEC50: −log10 of the molar value. Bridge positions count the residues as written; N and C are the ends. Square brackets hold non-standard residues; d marks the D form. Peptide text beside a SMILES is read from it. Orn(iPr) = CC(C)NCCC[C@H](N)C(=O)O; Orn(Pr) = CCCNCCC[C@H](N)C(=O)O; 2Thi = N[C@@H](Cc1cccs1)C(=O)O; Cha = N[C@@H](CC1CCCCC1)C(=O)O
experimental.readout: pEC50

- molecule: "CCCNCCC[C@H](NC(=O)[C@@H]1CCCN1C(=O)[C@@H]1CSSC[C@H](N)C(=O)N[C@@H](Cc2ccccc2)C(=O)N[C@@H]([C@@H](C)CC)C(=O)N[C@@H](CCC(N)=O)C(=O)N[C@@H](CC(N)=O)C(=O)N1)C(=O)NCC(N)=O (H-CFIQNCP[Orn(Pr)]G-NH2; disulfide 1-6)"
  value.measured: 6.85
- molecule: "CC[C@H](C)[C@@H]1NC(=O)[C@H](Cc2cccs2)NC(=O)[C@@H](N)CSSC[C@@H](C(=O)N2CCC[C@H]2C(=O)N[C@@H](CCCNC(C)C)C(=O)NCC(N)=O)NC(=O)[C@H](CC(N)=O)NC(=O)[C@H](CCC(N)=O)NC1=O (H-C[2Thi]IQNCP[Orn(iPr)]G-NH2; disulfide 1-6)"
  value.measured: 6.41
- molecule: "CC[C@H](C)[C@@H]1NC(=O)[C@H](CC2CCCCC2)NC(=O)[C@@H](N)CSSC[C@@H](C(=O)N2CCC[C@H]2C(=O)N[C@@H](CCCNC(C)C)C(=O)NCC(N)=O)NC(=O)[C@H](CC(N)=O)NC(=O)[C@H](CC(N)=O)NC1=O (H-C[Cha]INNCP[Orn(iPr)]G-NH2; disulfide 1-6)"
  value.measured: 6.01

* * *

# Species: Homo sapiens
# measurement.protocol: Selectivity ratio of EC50 for human vasopressin V1b receptor to EC50 for human vasopressin V1a receptor
Bridge positions count the residues as written; N and C are the ends. Square brackets hold non-standard residues; d marks the D form. Peptide text beside a SMILES is read from it. Ala(cPent) = N[C@@H](CC1CCCC1)C(=O)O; Dab(iPr) = CC(C)NCC[C@H](N)C(=O)O; Aad = N[C@@H](CCCC(=O)O)C(=O)O; Dab = NCC[C@H](N)C(=O)O

- molecule: "CC[C@H](C)[C@@H]1NC(=O)[C@H](CC2CCCC2)NC(=O)[C@@H](N)CSSC[C@@H](C(=O)N2CCC[C@H]2C(=O)N[C@@H](CCN)C(=O)NCC(N)=O)NC(=O)[C@H](CC(N)=O)NC(=O)[C@H](CC(N)=O)NC1=O (H-C[Ala(cPent)]INNCP[Dab]G-NH2; disulfide 1-6)"
  Ratio EC50: 6.9
- molecule: "CC[C@H](C)[C@@H]1NC(=O)[C@H](Cc2ccccc2)NC(=O)[C@@H](N)CSSC[C@@H](C(=O)N2CCC[C@H]2C(=O)N[C@@H](CCNC(C)C)C(=O)NCC(N)=O)NC(=O)[C@H](CC(N)=O)NC(=O)[C@H](CCCC(N)=O)NC1=O (H-CFI[Aad](NH2)NCP[Dab(iPr)]G-NH2; disulfide 1-6)"
  Ratio EC50: 53

* * *

# measured.target: Vasopressin V1a receptor (Homo sapiens)
# Sequence (P37288 whole entry): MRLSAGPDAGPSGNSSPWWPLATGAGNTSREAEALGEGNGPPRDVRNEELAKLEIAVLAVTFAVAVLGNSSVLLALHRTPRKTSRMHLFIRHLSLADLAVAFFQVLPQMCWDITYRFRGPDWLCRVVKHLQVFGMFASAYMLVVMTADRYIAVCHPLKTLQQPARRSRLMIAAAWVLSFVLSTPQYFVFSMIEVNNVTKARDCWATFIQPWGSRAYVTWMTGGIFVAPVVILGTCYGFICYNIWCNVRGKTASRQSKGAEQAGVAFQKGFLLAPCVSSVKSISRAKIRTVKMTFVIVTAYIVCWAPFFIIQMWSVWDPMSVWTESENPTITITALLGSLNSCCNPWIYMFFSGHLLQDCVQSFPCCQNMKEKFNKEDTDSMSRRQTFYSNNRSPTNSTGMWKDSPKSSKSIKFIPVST
# measurement.protocol: Agonist activity at recombinant human vasopressin V1a receptor expressed in HEK293 cells by luciferase reporter gene assay
# Assay type: functional, cell-based
# conditions: read-out: EC50
pEC50: −log10 of the molar value. Bridge positions count the residues as written; N and C are the ends. Square brackets hold non-standard residues; d marks the D form. Peptide text beside a SMILES is read from it. Ala(2-furyl) = N[C@@H](Cc1ccco1)C(=O)O; Orn = NCCC[C@H](N)C(=O)O

- compound: "CC[C@H](C)[C@@H]1NC(=O)[C@H](Cc2ccccc2)NC(=O)[C@@H](N)CSSC[C@@H](C(=O)N2CCC[C@H]2C(=O)N[C@@H](CCCN)C(=O)NCC(N)=O)NC(=O)[C@H](CC(N)=O)NC(=O)[C@H](CC(=O)N(C)C)NC1=O (H-CFID(NMe2)NCP[Orn]G-NH2; disulfide 1-6)"
  pEC50: 8.77
- compound: "CC[C@H](C)[C@@H]1NC(=O)[C@H](Cc2ccco2)NC(=O)[C@@H](N)CSSC[C@@H](C(=O)N2CCC[C@H]2C(=O)N[C@@H](CCCN)C(=O)NCC(N)=O)NC(=O)[C@H](CC(N)=O)NC(=O)[C@H](CC(N)=O)NC1=O (H-C[Ala(2-furyl)]INNCP[Orn]G-NH2; disulfide 1-6)"
  pEC50: 8.00
- compound: "NCCC[C@H](NC(=O)[C@@H]1CCCN1C(=O)[C@@H]1CSSC[C@H](N)C(=O)N[C@@H](Cc2ccccc2)C(=O)N[C@@H](Cc2ccccc2)C(=O)N[C@@H](CCC(N)=O)C(=O)N[C@@H](CC(N)=O)C(=O)N1)C(=O)NCC(N)=O (H-CFFQNCP[Orn]G-NH2; disulfide 1-6)"
  pEC50: 9.85

* * *

# Species on record: Homo sapiens
# measurement.protocol: Selectivity ratio of EC50 for human vasopressin V1b receptor to EC50 for human vasopressin V1a receptor
Numbered stars: 1 amine (or outer) side, 2 acyl side, 3 side chain; on linkers, the order of the positions; unused ones are H or OH. Bridge positions count the residues as written; N and C are the ends. Square brackets hold non-standard residues; d marks the D form. Peptide text beside a SMILES is read from it. * marks the point of attachment. Ala(2-furyl) = N[C@@H](Cc1ccco1)C(=O)O; Ala(cPent) = N[C@@H](CC1CCCC1)C(=O)O; Orn(iPr) = CC(C)NCCC[C@H](N)C(=O)O; X1 = CCNCCC[C@H](N[*:1])C(=O)[*:2]; 2Thi = N[C@@H](Cc1cccs1)C(=O)O; 3Thi = N[C@@H](Cc1ccsc1)C(=O)O; Cha = N[C@@H](CC1CCCCC1)C(=O)O; Orn = NCCC[C@H](N)C(=O)O; Dab = NCC[C@H](N)C(=O)O; Dap = NC[C@H](N)C(=O)O; X2 = CC(O)CN*; X3 = OCCOCCN*
Ratio EC50 strictly less than 20 = Yes. Otherwise No.

- compound: "CC[C@H](C)[C@@H]1NC(=O)[C@H](Cc2ccccc2)NC(=O)[C@@H](N)CSSC[C@@H](C(=O)N2CCC[C@H]2C(=O)N[C@@H](CCCN)C(=O)NCC(N)=O)NC(=O)[C@H](CC(N)=O)NC(=O)[C@H](CC(=O)NCCOCCO)NC1=O (H-CFID(X3)NCP[Orn]G-NH2; disulfide 1-6)"
  class: "Yes"
- compound: "CC[C@H](C)[C@@H]1NC(=O)[C@H](CC2CCCC2)NC(=O)[C@@H](N)CSSC[C@@H](C(=O)N2CCC[C@H]2C(=O)N[C@@H](CCCN)C(=O)NCC(N)=O)NC(=O)[C@H](CC(N)=O)NC(=O)[C@H](CC(N)=O)NC1=O (H-C[Ala(cPent)]INNCP[Orn]G-NH2; disulfide 1-6)"
  class: "Yes"
- compound: "CC[C@H](C)[C@@H]1NC(=O)[C@H](Cc2ccccc2)NC(=O)[C@@H](N)CSSC[C@@H](C(=O)N2CCC[C@H]2C(=O)N[C@@H](CCCNC(C)C)C(=O)NCC(N)=O)NC(=O)[C@H](CC(N)=O)NC(=O)[C@H](CCCC(N)=O)NC1=O"
  class: "No"
- compound: "CC[C@H](C)[C@@H]1NC(=O)[C@H](Cc2ccccc2)NC(=O)[C@@H](N)CSSC[C@@H](C(=O)N2CCC[C@H]2C(=O)N[C@@H](CCCNC(C)C)C(=O)NCC(N)=O)NC(=O)[C@H](CC(N)=O)NC(=O)[C@H](CC(N)=O)NC1=O (H-CFINNCP[Orn(iPr)]G-NH2; disulfide 1-6)"
  class: "No"
- compound: "CC[C@H](C)[C@@H]1NC(=O)[C@H](Cc2ccccc2)NC(=O)[C@@H](N)CSSC[C@@H](C(=O)N2CCC[C@H]2C(=O)N[C@@H](CCN)C(=O)NCC(N)=O)NC(=O)[C@H](CC(N)=O)NC(=O)[C@H](CC(N)=O)NC1=O (H-CFINNCP[Dab]G-NH2; disulfide 1-6)"
  class: "Yes"
- compound: "CC[C@H](C)[C@@H]1NC(=O)[C@H](Cc2ccco2)NC(=O)[C@@H](N)CSSC[C@@H](C(=O)N2CCC[C@H]2C(=O)N[C@@H](CCN)C(=O)NCC(N)=O)NC(=O)[C@H](CC(N)=O)NC(=O)[C@H](CC(N)=O)NC1=O (H-C[Ala(2-furyl)]INNCP[Dab]G-NH2; disulfide 1-6)"
  class: "No"
- compound: "CC[C@H](C)[C@@H]1NC(=O)[C@H](Cc2ccsc2)NC(=O)[C@@H](N)CSSC[C@@H](C(=O)N2CCC[C@H]2C(=O)N[C@@H](CCCN)C(=O)NCC(N)=O)NC(=O)[C@H](CC(N)=O)NC(=O)[C@H](CC(N)=O)NC1=O (H-C[3Thi]INNCP[Orn]G-NH2; disulfide 1-6)"
  class: "No"
- compound: "CC[C@H](C)[C@@H]1NC(=O)[C@H](Cc2cccs2)NC(=O)[C@@H](N)CSSC[C@@H](C(=O)N2CCC[C@H]2C(=O)N[C@@H](CCCNC(C)C)C(=O)NCC(N)=O)NC(=O)[C@H](CC(N)=O)NC(=O)[C@H](CC(N)=O)NC1=O (H-C[2Thi]INNCP[Orn(iPr)]G-NH2; disulfide 1-6)"
  class: "Yes"
- compound: "CC[C@H](C)[C@@H]1NC(=O)[C@H](Cc2ccccc2)NC(=O)[C@@H](N)CSSC[C@@H](C(=O)N2CCC[C@H]2C(=O)N[C@@H](CN)C(=O)NCC(N)=O)NC(=O)[C@H](CC(N)=O)NC(=O)[C@H](CCC(N)=O)NC1=O (H-CFIQNCP[Dap]G-NH2; disulfide 1-6)"
  class: "Yes"
- compound: "CCNCCC[C@H](NC(=O)[C@@H]1CCCN1C(=O)[C@@H]1CSSC[C@H](N)C(=O)N[C@@H](Cc2ccccc2)C(=O)N[C@@H]([C@@H](C)CC)C(=O)N[C@@H](CCC(N)=O)C(=O)N[C@@H](CC(N)=O)C(=O)N1)C(=O)NCC(N)=O (H-CFIQNCP[X1]G-NH2; disulfide 1-6)"
  class: "No"
- compound: "CC[C@H](C)[C@@H]1NC(=O)[C@H](Cc2ccco2)NC(=O)[C@@H](N)CSSC[C@@H](C(=O)N2CCC[C@H]2C(=O)N[C@@H](CCCNC(C)C)C(=O)NCC(N)=O)NC(=O)[C@H](CC(N)=O)NC(=O)[C@H](CCC(N)=O)NC1=O (H-C[Ala(2-furyl)]IQNCP[Orn(iPr)]G-NH2; disulfide 1-6)"
  class: "No"
- compound: "CC[C@H](C)[C@@H]1NC(=O)[C@H](Cc2ccccc2)NC(=O)[C@@H](N)CSSC[C@@H](C(=O)N2CCC[C@H]2C(=O)N[C@@H](CCCN)C(=O)NCC(N)=O)NC(=O)[C@H](CC(N)=O)NC(=O)[C@H](CC(=O)NCC(C)O)NC1=O (stereo partly drawn) (H-CFID(X2)NCP[Orn]G-NH2; disulfide 1-6)"
  class: "Yes"
- compound: "CC[C@H](C)[C@@H]1NC(=O)[C@H](CC2CCCCC2)NC(=O)[C@@H](N)CSSC[C@@H](C(=O)N2CCC[C@H]2C(=O)N[C@@H](CCN)C(=O)NCC(N)=O)NC(=O)[C@H](CC(N)=O)NC(=O)[C@H](CCC(N)=O)NC1=O (H-C[Cha]IQNCP[Dab]G-NH2; disulfide 1-6)"
  class: "No"
